System: HCT-116 colon
Test: NCI tumour cell line growth inhibition, 48 h; in the data active = GI50 below about 0.43 µM; inactive = the rest
Select the correct class. Options are 1 for active, 0 for inactive and nothing else.

MOLECULE	TARGET OR SYSTEM	ASSIGNED CATEGORY
CCOC(=O)c1c2c(n3ccc(NC(=O)CCN4CCCC4)cc13)C(=O)c1ncccc1C2=O	HCT-116 colon	1
CC(C)C[C@H](NC(=O)[C@H](Cc1cccc2ccccc12)NC(=O)N1CCOCC1)B(O)O	HCT-116 colon	1
CS(=O)(=O)CCNCc1nc(-c2ccc3ncnc(Nc4ccc(F)c(Cl)c4)c3c2)cs1	HCT-116 colon	0
C=C1C(=O)O[C@H]2[C@H]1CC/C(COC(=O)c1cc3cc(F)ccc3[nH]1)=C\CC[C@@]1(C)O[C@@H]21	HCT-116 colon	0
COc1ccc(-c2nn3ncccc3c2-c2ccnc(Nc3ccc(Cl)c(C(F)(F)F)c3)n2)cc1	HCT-116 colon	0
O=[N+]([O-])C1C(c2ccccc2)C12c1ccccc1-c1ccccc12 (centres undefined)	HCT-116 colon	1

Outcome? Cc1ccc2[nH]cc(-c3nc(-c4c[nH]c5ncccc45)cs3)c2c1
0

Outcome? COc1ccc2c(c1)/C(=C\c1c(C)nc3sc(C)cn13)C(=O)N2C
0

Outcome? CCOC(=O)c1ccc(NC(=O)N2CC(C)OC(C)C2)cc1 (centres undefined)
0

====

Test system: SNB-75 CNS
Experiment: NCI tumour cell line growth inhibition, 48 h
Measured TGI of individual entries

Check out these entries, answers already filled in.
MOLECULE	TARGET OR SYSTEM	TGI
O=[N+]([O-])C1C(c2ccccc2)C12c1ccccc1-c1ccccc12 (stereo not given)	SNB-75 CNS	14 µM
N=C(N)SCCON1C(=O)c2ccccc2C1=O	SNB-75 CNS	> 100 µM
O=C(CCCCCCSc1nc(-c2ccccc2)cc(-c2ccc(Cl)cc2)n1)NO	SNB-75 CNS	13.7 µM
O=C(c1ccccc1)C(C(=O)c1ccccc1)C1(O)C(=O)c2ccccc2C1=O	SNB-75 CNS	> 100 µM
COC1=CC(=O)c2ccccc2C1(CCC=C(C)C)C1=NC(C)(C)CO1 (stereo not given)	SNB-75 CNS	> 100 µM

Quick check: TGI of Brc1ccc(N=NN2CCCCC2)cc1 ?
> 100 µM

Quick check: TGI of Cc1cc(C)nc(NS(=O)(=O)c2ccc(Nc3c4ccccc4nc4c(C(=O)Nc5ccc(S(=O)(=O)N=C(N)N)cc5)ccc(Cl)c34)cc2)n1 ?
> 100 µM

====

Measured TGI of individual entries
Tested on: MDA-MB-435
Assay: NCI tumour cell line growth inhibition, 48 h
All answers are understood in µM, so give the number only.

COMPOUND	ENDPOINT LABEL	VAL
C=C1C(=O)O[C@H]2[C@H]1CC/C(COC(=O)c1cc3cc(F)ccc3[nH]1)=C\CC[C@@]1(C)O[C@@H]21	TGI	2.96

Please state recorded TGI (tested on MDA-MB-435) of CCOc1cc2ncc(C#N)c(Nc3ccc(OCc4cccc(F)c4)c(Cl)c3)c2cc1NC(=O)CC1CCSS1 (centres undefined)
1.52

Please state recorded TGI (tested on MDA-MB-435) of O=C(Nc1ccccc1)O/N=C(/CBr)c1ccccc1
21.5

Please state recorded TGI (tested on MDA-MB-435) of CC(C)C[C@H](NC(=O)[C@H](Cc1cccc2ccccc12)NC(=O)N1CCOCC1)B(O)O
0.000308

Please state recorded TGI (tested on MDA-MB-435) of O=C(Nc1sccc1S(=O)(=O)c1ccccc1)c1cccnc1
8.36

====

System: HOP-92 NSCLC
Assay: NCI tumour cell line growth inhibition, 48 h
Measured log10(TGI) of individual entries
Recorded TGI (log10, µM)

Quick check: log10(TGI) of CCCCCc1cc(OC(=O)c2c(O)cc(OC)cc2CCCCC)cc(O)c1C(=O)O ?
1.49

====

Tested on: SK-MEL-5 melanoma
Experiment: NCI tumour cell line growth inhibition, 48 h
ENDPOINT LABEL: TGI

COMPOUND	VAL
COc1cc([C@H]2c3cc4c(cc3O[C@@]3(O)COC(=O)[C@@H]23)OCO4)cc(OC)c1OC	> 100 µM

Quick check: TGI of O=C(Nc1ccccc1F)c1c(O)nc2sccn2c1=O ?
> 10 µM

Quick check: TGI of COC(=O)/C=C/c1ccccc1N=[S@](C)(=O)c1ccc(C)cc1 ?
38.3 µM

Quick check: TGI of Cc1c2c(nn1-c1ccc(S(=O)(=O)NC(=S)Nc3ccccc3)cc1)-c1ccccc1CC2 ?
> 50 µM

Quick check: TGI of CCN1CC(C)Cn2c(=O)[nH]c3cc(Br)cc1c32 (stereo not given) ?
> 100 µM

====

System: SW-620 colon
Test: NCI tumour cell line growth inhibition, 48 h; in the data active = GI50 below about 0.43 µM; inactive = the rest
Select the correct class. Options are Yes = active, No = inactive and nothing else.

Some entries whose results are on file:
COMPOUND	ASSIGNED CATEGORY
Cc1ccc(CNc2c3ccccc3nc3ccccc23)cc1	No
CCN(CC)CCOc1nc2ccc(OC)cc2c2c1-c1ccc(OC)cc1C2=O	Yes
COc1cc(C2C=C(c3cccc(NC(C)=O)c3)Nc3ncnn32)cc(OC)c1OC (stereo unspecified)	Yes
COc1ccc(N=C2CSc3nnc(-c4cc(F)c(Cl)cc4Cl)n3N2)cc1	No
CCOC(=O)c1ccc(NC(=O)N2CC(C)OC(C)C2)cc1 (stereo unspecified)	No

Outcome? O=C(CCCCCCSc1nc(-c2ccccc2)cc(-c2ccc(Cl)cc2)n1)NO
No

Outcome? O=C(Oc1ccc(Cl)cc1Cl)c1ccccc1Nc1ccnc(C(F)(F)F)c1
No

Outcome? CS(=O)(=O)CCNCc1nc(-c2ccc3ncnc(Nc4ccc(F)c(Cl)c4)c3c2)cs1
No

Outcome? CNC(=O)c1cc(OC2CCC(NC(=O)Nc3ccc(Cl)c(C(F)(F)F)c3)CC2)ccn1 (stereo unspecified)
No

Outcome? Cc1ccc(-[n+]2c3cc(N)c(C)cc3nc3cc(C)c(Nc4ccccc4)cc32)cc1
Yes

Outcome? COc1cc(/C(C#N)=C/c2ccc3c(c2OC)OCO3)cc2c1OCO2
Yes

====

Test system: HL-60(TB) leukemia
Experiment: NCI tumour cell line growth inhibition, 48 h
Measured TGI of individual entries
All answers are understood in µM, so give the number only.

Check out these entries, answers already filled in.
COMPOUND	TARGET OR SYSTEM	TGI / µM
CCCC/C=C1\CCC(CN2CCCCC2)C1=O (stereo not given)	HL-60(TB) leukemia	14.4
COc1ccc(-c2nc3sc(C)cn3c2/C=C/C(=O)c2cc(OC)c(OC)c(OC)c2)cc1	HL-60(TB) leukemia	7.48
C=C1CC2(OC1=O)C(=O)N(CCCCCCCN1C(=O)C3(CC(=C)C(=O)O3)c3ccccc31)c1ccccc12 (stereo not given)	HL-60(TB) leukemia	3.21

Quick check: TGI of O=C(c1ccccc1)C(C(=O)c1ccccc1)C1(O)C(=O)c2ccccc2C1=O ?
46.9

====

Tested on: ACHN renal
Experiment: NCI tumour cell line growth inhibition, 48 h; in the data active = GI50 below about 0.43 µM; inactive = the rest
Select the correct class. Options are active, inactive and nothing else.

Some entries whose results are on file:
MOLECULE	ASSIGNED CATEGORY
C=C1CC2(OC1=O)C(=O)N(CCCCCCCN1C(=O)C3(CC(=C)C(=O)O3)c3ccccc31)c1ccccc12 (stereo unspecified)	inactive
O=C(CN1CCN(c2ncccn2)CC1)Nc1ccc(Cl)cc1C(=O)c1ccccc1Cl	inactive
O=C(Nc1ccc(N2CCNCC2)cc1)c1[nH]ncc1Nc1ncnc2sc3c(c12)CCC3	active
Cc1ccc(CNc2c3ccccc3nc3ccccc23)cc1	inactive
COc1ccc2c(c1)/C(=C\c1c(C)nc3sc(C)cn13)C(=O)N2C	inactive

Turning to the following molecule.
Outcome? COc1ccc2nc(N/N=C(\C)c3ccccn3)cc(C)c2c1
active

====

Measured TGI of individual entries
Tested on: OVCAR-5 ovarian
Test: NCI tumour cell line growth inhibition, 48 h

COMPOUND	TGI
COc1ccc(N(C(=O)Nc2ccc(Cl)c(Cl)c2)c2ccccc2)cc1	> 10 µM
O=C(Nc1sccc1S(=O)(=O)c1ccccc1)c1cccnc1	> 100 µM
C=C1C(=O)O[C@H]2[C@H]1CC/C(Cn1cc(CNC(=O)Cc3cn(C(=O)c4ccc(Cl)cc4)c4ccc(OC)cc34)nn1)=C\CC[C@@]1(C)O[C@@H]21	3.34 µM
Cn1ccnc1S/C(=C\C=C(C#N)C#N)c1ccc(Cl)cc1	7.81 µM
NCCC(N)C(=O)O (stereo unspecified)	> 100 µM
Cc1ccc(CNc2c3ccccc3nc3ccccc23)cc1	8.08 µM
COc1cccc2cc(C)c(C(=O)c3ccccc3)nc12	> 100 µM
CN(C)c1ccc(N2C(=S)SC(=Nc3ccccc3)C2=Nc2ccccc2)cc1	> 100 µM
COc1ccc(-c2nn3ncccc3c2-c2ccnc(Nc3ccc(Cl)c(C(F)(F)F)c3)n2)cc1	> 25 µM
CCc1cccc(C(C)C)c1NC(=O)C(=O)C(Cc1nc2ccccc2[nH]c1=O)C(=O)OC (stereo unspecified)	> 100 µM

Please state recorded TGI (tested on OVCAR-5 ovarian) of CC(=O)Oc1ccc(/C=C/C(=O)O[C@@H](C)[C@H](C)OC(=O)/C=C/c2ccc(OC(C)=O)c(OC(C)=O)c2)cc1OC(C)=O
58.8 µM

Please state recorded TGI (tested on OVCAR-5 ovarian) of CCOc1ccccc1NC(=O)C(=O)CC(=O)c1c(C)n([O-])c2ccccc2[n+]1=O
> 100 µM

Please state recorded TGI (tested on OVCAR-5 ovarian) of c1ccc(CNc2c3c(nc4ccccc24)CCC3)cc1
51.4 µM

Ref: PubChem BioAssay (NCI)
